# system.name: human CCR8 (human, UniProt P51685 1-355)
# assay.notes: cell-based or functional assay
outcome.measure: hCCL1 (100 nM) residual response, Protocol #2, mAb 10 µg/mL (%)
Report the figure in % without appending any unit label.

Below are worked cases with known answers.
binder	obs.value
3-53 (antibody, V domains shown) VH: QVQVQQSGAELARPGASVKMSCKASGYTFTTYAMHWVKQRPGQGLEWIGHINPSSGYSNYNQKFKDKATLTADKSSSTAYMQLSSLTSEDSAVYYCARSEVRRGYFDVWGAGTTVTVSS VL: DIQMTQTTSSLSASLGDRVTISCRTSQDIRNYLNWYQQKPDGTVKLLISYTSRLHSGVPSRFSGSGSGTDYSLTISNLEQEDFATYFCQQGNTLPPTFGGGTRVEIK	53
3-14 (antibody, V domains shown) VH: EVQLVESGGGLVQPTGSLRLSCAASGFTFNAYAMNWVRQAPGKGLEWVARIRSKSNDYATYYGDSVKDRFTISRDDSQSMLYLQMNNLKTEDTAMYYCVRGREAYYRYDGGYYAMDYWGQGTSVTVSS VL: DIVMTQAAPSVSVTPGESVSISCTSSKSLLHSNGNTYLYWFLQRPGQSPQLLIYRMSNLASGVPDRFSGSGSGTAFTLRISRVEAEDVGVYYCMQHREYPFTFGSGTKLEIK	28

# context switch: different binder, same hCCL1 (100 nM) residual response, Protocol #2, mAb 10 µg/mL
Recorded result, 3-33 (antibody, V domains shown) VH: EVQLQQSGPELVKPGASVKISCKTSGYTFTEYTIHWVKQSHGESLEWVGGINPNNGNTRYDQKFKGKATLTIDKSSSPAYMELRSLTSEDSAVYYCARVARSSGSGPYAMDYWGQGTSVTVSS VL: DVVMTQTPLSLPVSLGDQASISCRCTQSLLHTNGDTYLHWYLQKPGQSPKLLIYKVSNRFSGVPDRFSGSGSGTDFTLKISRVEAEDLGVYFCSQSTHVPYTFGGGTKLEIK , hCCL1 (100 nM) residual response, Protocol #2, mAb 10 µg/mL: 28
